Reference for the values: patent US8735406B2

target: FAAH (Rattus norvegicus, UniProt P97612); construct: Preparation of Rat Brain Membranes Preparations (FAAH Enzyme Solution); from tissue; host or cells: rat cerebrum (brain membrane preparation); assay: Determination of FAAH inhibitory activity in rat (rat brain membrane preparations, [3H]-anandamide hydrolysis); type: biochemical; details: rat brain membrane preparations; 100 nM test substance; read-out: FAAH Inhibition, Inhibition Rate at 100 nM
Sequence (P97612 whole entry): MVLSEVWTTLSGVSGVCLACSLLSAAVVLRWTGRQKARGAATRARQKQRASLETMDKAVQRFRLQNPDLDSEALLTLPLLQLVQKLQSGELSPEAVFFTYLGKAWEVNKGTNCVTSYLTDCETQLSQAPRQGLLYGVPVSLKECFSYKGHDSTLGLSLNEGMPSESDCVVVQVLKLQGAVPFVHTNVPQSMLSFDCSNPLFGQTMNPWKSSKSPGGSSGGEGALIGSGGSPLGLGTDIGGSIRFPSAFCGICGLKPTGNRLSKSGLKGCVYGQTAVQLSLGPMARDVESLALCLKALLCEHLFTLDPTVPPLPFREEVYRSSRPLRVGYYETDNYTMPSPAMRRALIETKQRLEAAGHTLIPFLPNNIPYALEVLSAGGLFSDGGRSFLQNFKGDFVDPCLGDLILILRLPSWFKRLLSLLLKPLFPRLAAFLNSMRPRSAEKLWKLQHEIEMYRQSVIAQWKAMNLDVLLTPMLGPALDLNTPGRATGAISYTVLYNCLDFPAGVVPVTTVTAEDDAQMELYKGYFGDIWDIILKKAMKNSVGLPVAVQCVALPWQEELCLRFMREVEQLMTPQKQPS
# inhibition at 0.1 µM values compiled below
Give just the number in %; leave the unit off.

>>> measured_value("COCCC1CCN(C(=O)n2c(=O)n(C)c3nc(-c4cccc(OC)c4)ncc32)CC1")
100

As a next step, examine the compound that follows.
Input line: Read the entry Cn1c(=O)n(C(=O)N2CCCC2)c2cnc(CCc3ccccc3)nc21 and write its reported inhibition at 0.1 µM.
Output line: 79
